meta.source: the RNAGym collection of RNA variant scans (doi:10.1073/pnas.2313332121)

Answer each item with its documented polymerase ribozyme fitness (log ratio).
B1: TPR 5TU (parent)
chain: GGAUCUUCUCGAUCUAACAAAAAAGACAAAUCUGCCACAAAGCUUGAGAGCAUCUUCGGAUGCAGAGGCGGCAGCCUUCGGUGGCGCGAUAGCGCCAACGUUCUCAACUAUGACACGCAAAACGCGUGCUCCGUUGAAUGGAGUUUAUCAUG

# Variants of: B1
# run.description: polymerase ribozyme fitness, log enrichment relative to wild type (log ratio); higher = more active; in vitro selection for triplet polymerase activity
Variants at the floor of the assay were thinned out.

mutation.annotation	polymerase ribozyme fitness (log ratio)
C14U U53A U56A	-2.46
U31G C57G G88U	≤ -4.2
C32G G46A A52G U53A A60U C87A A89U A142U	≤ -4.2
C18G A137G U145G	-2.16
A20U A21U A37C C96A A121G	-1.8
G67A G74C G94A A119G	≤ -4.2
G42C U61A G88A C95U U104G	≤ -4.2
C35U C93G	-3.19
C85G U130G	≤ -4.2
U31G A39G U55A A66C G68C C69U G117A	≤ -4.2

Fill in polymerase ribozyme fitness (log ratio) for each of the 7 variants listed.
1. A12G G25A C87G C116A U148G
2. C116U U151C
3. A12C A37C U53C G86U A97G A113U
4. U77A C95U
5. C10A A17C G34A A91C U102G G140U
6. C18A A20G G46C U56C G94C C105G A122U
7. C95U C96U C118U C125A C129G

1. ≤ -4.2
2. -4.04
3. ≤ -4.2
4. ≤ -4.2
5. -3.67
6. -0.89
7. ≤ -4.2

Fill in polymerase ribozyme fitness (log ratio) for each of the 5 variants listed.
1. A39C C93U
2. G25U A26G G68C A107G U135C
3. A40U C57A G58C C79G
4. A12G C35U G83A
5. C87U C96U

1. -3.4
2. ≤ -4.2
3. -3.81
4. -0.598
5. -1

Fill in polymerase ribozyme fitness (log ratio) for each of the 8 variants listed.
1. A29G C103G U104G
2. G83A C108U
3. A12C C54U
4. A39C A41C G65A C96A C103A U111G
5. C8G A52G C57U G80C U104G U148G
6. A91G C118G G143C
7. A12G C14U A19G A21U A28G G65C G84C G124U G143C U145C
8. C36U C103G

1: ≤ -4.2; 2: -3.01; 3: -0.207; 4: ≤ -4.2; 5: ≤ -4.2; 6: ≤ -4.2; 7: ≤ -4.2; 8: -3.78
